assay: Inhibitory concentration of [3H]- nitrendipine binding against guinea pig cerebral cortex membrane; assay type: functional, tissue-based, Cavia porcellus
resultType: IC50 (nM)
Give the quantity in nM, number only.

molecule=COc1cc(CCN(C)CCCOc2ccc(S(=O)(=O)c3c(C(C)C)c4ccccc4n3C)cc2)cc(OC)c1 resulttype=IC50 readoutvalue=0.093
molecule=CCCCN(CCCC)CCCOc1ccc(S(=O)(=O)c2c(C(C)C)[nH]c3ccccc23)cc1 resulttype=IC50 readoutvalue=110
molecule=COc1ccc(CCN(C)CCCOc2ccc(S(=O)(=O)c3c(C(C)C)n(C)c4ccccc34)cc2)cc1OC resulttype=IC50 readoutvalue=1.1
molecule=COc1ccc(CCN(C)CCCOc2ccc(S(=O)(=O)c3[nH]c4ccccc4c3C(C)C)cc2)cc1OC resulttype=IC50 readoutvalue=2.2
molecule=COc1ccc(CCN(C)CCCOc2ccc(S(=O)(=O)c3c(C(C)C)[nH]c4ccccc34)cc2)cc1OC resulttype=IC50 readoutvalue=10.9
molecule=COc1ccc(CN(C)CCCOc2ccc(S(=O)(=O)c3c(C(C)C)n(C)c4ccccc34)cc2)cc1OC resulttype=IC50 readoutvalue=1

Given "COc1ccc(CCNCCCOc2ccc(S(=O)(=O)c3c(C(C)C)oc4ccccc34)cc2)cc1OC" , state its recorded IC50.
1.6

Item under review: "CCCCN(CCCC)CCCOc1ccc(S(=O)(=O)c2cc3ccccc3nc2C(C)C)cc1" . Reported IC50?
94

For the molecule shown here, "CCCc1oc2ccccc2c1S(=O)(=O)c1ccc(OCCCN(C)CCc2ccc(OC)c(OC)c2)cc1" , give the reported IC50.
5.2

Quick one: IC50 for "COc1ccc(CCN(C)CCCOc2ccc(S(=O)(=O)c3cc4ccccc4nc3C(C)C)cc2)cc1OC" ?
13.1

Give the measured IC50 of "COc1ccc(CCN(C)CCCOc2ccc(S(=O)(=O)c3c(C(C)C)oc4ccccc34)cc2)cc1OC" .
0.65

So what does the record say about IC50 for "CCCCc1oc2ccccc2c1S(=O)(=O)c1ccc(OCCCN(C)CCc2ccc(OC)c(OC)c2)cc1" ?
7.9

What does the data say about its IC50? Entry: "COc1ccc(CCN(C)CCCOc2ccc(S(=O)(=O)c3c(C(C)C)c4ccccc4n3C)cc2)cc1OC"
0.072

If you can, please state the reported IC50 value of "COc1cc(CCN(C)CCCOc2ccc(S(=O)(=O)c3c(C(C)C)oc4ccccc34)cc2)cc(OC)c1OC" .
0.59

Which IC50 value is on record for COc1ccc(CCN(C)CCCC(C#N)(c2ccc(OC)c(OC)c2)C(C)C)cc1OC (stereo not drawn) ?
38

If you can, please state the reported IC50 value of "CC(C)c1cc2ccccn2c1S(=O)(=O)c1ccc(OCCCNC(C)(C)C)cc1" .
12

For the molecule "COc1ccc(CN(C)CCCOc2ccc(S(=O)(=O)c3c(C(C)C)oc4ccccc34)cc2)cc1OC" , what IC50 is on record?
1.9

Name the reported IC50 value associated with the molecule "CC(C)c1nc2ccccc2cc1S(=O)(=O)c1ccc(OCCCNC(C)(C)C)cc1"
181

====

Some compounds, each annotated with its measured log10 IC50.
organism: Rattus norvegicus; test: Inhibition of [Ca2+] induced contraction of K+ depolarized rat aorta by 50%; format: functional
Note the log scale: values are log10 of IC50 expressed in nM.

moleculesmiles=CCCCN(CCCC)CCCOc1ccc(S(=O)(=O)c2cc3ccccc3nc2C(C)C)cc1 readoutvalue=2.30
moleculesmiles=COc1ccc(CCN(C)CCCOc2ccc(S(=O)(=O)c3c(C(C)C)[nH]c4ccccc34)cc2)cc1OC readoutvalue=1.28
moleculesmiles=COc1ccc(CN(C)CCCOc2ccc(S(=O)(=O)c3c(C(C)C)n(C)c4ccccc34)cc2)cc1OC readoutvalue=0.57

Returns the measured log10 IC50 for the input compound. Input: "CC(C)c1cc2ccccn2c1S(=O)(=O)c1ccc(OCCCNC(C)(C)C)cc1"
1.52

Please look up its log10 IC50: "CC(C)c1occc1S(=O)(=O)c1ccc(OCCCNC(C)(C)C)cc1"
2.37

I'd like to know its log10 IC50. The compound in question is "CC(C)c1c(S(=O)(=O)c2ccc(OCCCNC(C)(C)C)cc2)c2ccccc2n1C"
2.00

Record request: log10 IC50 value, item "CCCCN(CCCC)CCCOc1ccc(S(=O)(=O)c2c[nH]nc2C(C)C)cc1"
3.70

// query log10 IC50 value for entry "COc1ccc(CCN(C)CCCOc2ccc(S(=O)(=O)c3cc4ccccc4nc3C(C)C)cc2)cc1OC"
1.93

I'd like to know its log10 IC50. The compound in question is "CCCCN(CCCC)CCCOc1ccc(S(=O)(=O)c2ccoc2C(C)C)cc1"
2.08

Given "CCCCc1oc2ccccc2c1S(=O)(=O)c1ccc(OCCCN(C)CCc2ccc(OC)c(OC)c2)cc1" , state its recorded log10 IC50.
2.36

// lookup log10 IC50 for "COc1ccc(CCN(C)CCCOc2ccc(S(=O)(=O)c3c[nH]nc3C(C)C)cc2)cc1OC"
3.24

Quick check: log10 IC50 of "CCCCN(CCCC)CCCOc1ccc(S(=O)(=O)c2c(C(C)C)[nH]c3ccccc23)cc1" ?
1.74

FYI, the data here is from ChEMBL document CHEMBL1126689.
